TARGET DESC: Replicative DNA helicase DnaB (Mycobacterium tuberculosis, UniProt P9WMR3)
Sequence (P9WMR3 1-399, added parts left off): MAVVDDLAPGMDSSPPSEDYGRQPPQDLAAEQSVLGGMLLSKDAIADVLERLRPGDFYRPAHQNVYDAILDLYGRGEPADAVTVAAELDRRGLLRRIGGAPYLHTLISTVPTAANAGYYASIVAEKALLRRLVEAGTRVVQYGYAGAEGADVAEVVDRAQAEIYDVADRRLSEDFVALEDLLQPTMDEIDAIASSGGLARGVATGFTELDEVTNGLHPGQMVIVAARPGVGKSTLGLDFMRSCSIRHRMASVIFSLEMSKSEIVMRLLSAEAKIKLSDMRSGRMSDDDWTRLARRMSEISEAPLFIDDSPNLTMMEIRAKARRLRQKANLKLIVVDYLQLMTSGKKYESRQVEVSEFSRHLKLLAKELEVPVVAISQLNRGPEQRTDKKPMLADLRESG
ASSAY PROTOCOL: DnaB intein splicing inhibitors, dose response, biochemical, cell-free fluorescence (AID 449749)
Type: functional
Activity calls are given as the source filed them.
Recorded measurements of AC50, one per entry

Some solved cases for reference:
MOLECULE: Cc1cccc(N2CC(C(=O)OCC(=O)c3ccc(OC(=O)c4cccs4)cc3)CC2=O)c1C (stereo not given)
MEASUREMENT NAME: AC50
RESULT: 97.7 µM (active)

MOLECULE: Cc1cc(C2C(C#N)=C(N)Oc3[nH]nc(C)c32)c(C)s1 (stereo not given)
MEASUREMENT NAME: AC50
RESULT: 10.9 µM (active)

MOLECULE: CC1=NN(c2ccc(Cl)cc2)C(=O)C1
MEASUREMENT NAME: AC50
RESULT: 2.74 µM (active)

I would be grateful if you could share the reported AC50 for CCOC(=O)c1nc(C)n(-c2ccc(Cl)cc2)n1 .
> 380 µM (inactive)

Look at this molecule and give its reported AC50. Cc1cc(C)c(C(CC(=O)c2cccs2)C(C#N)C#N)c(C)c1 (stereo not given)
3.42 µM (active)

###

TARGET DESC: Paired box protein Pax-8 (Homo sapiens)
Sequence (Q06710 whole entry): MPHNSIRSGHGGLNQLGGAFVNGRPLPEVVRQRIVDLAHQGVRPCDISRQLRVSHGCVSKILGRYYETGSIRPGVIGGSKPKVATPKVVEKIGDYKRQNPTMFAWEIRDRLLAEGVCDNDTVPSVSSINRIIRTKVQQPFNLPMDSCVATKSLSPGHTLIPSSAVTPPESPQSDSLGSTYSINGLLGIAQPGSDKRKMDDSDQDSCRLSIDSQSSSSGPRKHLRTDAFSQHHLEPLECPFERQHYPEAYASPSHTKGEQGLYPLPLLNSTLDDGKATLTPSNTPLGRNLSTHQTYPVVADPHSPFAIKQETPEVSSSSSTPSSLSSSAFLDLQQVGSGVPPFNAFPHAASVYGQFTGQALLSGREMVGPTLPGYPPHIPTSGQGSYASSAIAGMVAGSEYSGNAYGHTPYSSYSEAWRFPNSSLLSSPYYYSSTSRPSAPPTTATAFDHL
ASSAY PROTOCOL: PAX8 transcriptional activity inhibition in RMG-I – RMG-I cells, luciferase, cherry-pick, dose response (AID 687027);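 note: luciferase reporter driven by Pax8 target thyroperoxidase promoter measured by SteadyGlo luminescence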
Assay type: functional, cell-based
The source made the active and inactive calls.
AC50 values, listed per item

STRUCTURE SMILES STRING: C[C@@H]1CN([C@H](C)CO)C(=O)c2cc(NS(=O)(=O)c3ccc(Cl)cc3)ccc2O[C@@H](C)CCCCO[C@@H]1CN(C)CC1CCCCC1
TARGET DESC: Paired box protein Pax-8 (Homo sapiens)
AC50: 9.23 µM (active)

STRUCTURE SMILES STRING: COc1ccccc1C#Cc1ccc2c(c1)O[C@@H](CN(C)Cc1cccnc1)[C@H](C)CN([C@H](C)CO)S2(=O)=O
TARGET DESC: Paired box protein Pax-8 (Homo sapiens)
AC50: 2.04 µM (active)

STRUCTURE SMILES STRING: C[C@@H]1CCCCO[C@H](CN(C)C(=O)Cc2ccccc2)[C@@H](C)CN([C@@H](C)CO)C(=O)c2cc(NS(=O)(=O)c3ccc(Cl)cc3)ccc2O1
TARGET DESC: Paired box protein Pax-8 (Homo sapiens)
AC50: 7.18 µM (active)

Now for the molecule whose AC50 we want.
API: value(readout= AC50, system= Paired box protein Pax-8 (Homo sapiens), query= C[C@H]1CN([C@@H](C)CO)S(=O)(=O)c2ccc(C#Cc3ccc(F)cc3)cc2O[C@H]1CN(C)C(=O)NC1CCCCC1 )
8.09 µM (active)

###

TARGET DESC: Replicative DNA helicase DnaB (Mycobacterium tuberculosis)
ASSAY PROTOCOL: DnaB intein splicing inhibitors, dose response, biochemical, cell-free fluorescence (AID 449749)
Format: functional
Active and inactive are the calls of the source.
The categories you may choose from are active, inactive

Use these answered entries as a reference point.
COMPOUND: O=C(NC1CCCC1)C(c1ccc(Cl)cc1)N(Cc1ccc(F)cc1)C(=O)CCl (stereo not given)
CATEGORY LABEL: active
--
COMPOUND: COc1cc(C(c2c(C)[nH][nH]c2=O)c2c(C)[nH][nH]c2=O)cc([N+](=O)[O-])c1O
CATEGORY LABEL: active
--
COMPOUND: O=C(/C=C/c1ccc(O)cc1)c1ccc(/N=C2\C(=O)c3ccccc3C(O)=C2N2CCCCC2)cc1
CATEGORY LABEL: inactive
--
COMPOUND: O=C(O)CSc1cc(NS(=O)(=O)c2ccc(Br)cc2)c2ccccc2c1O
CATEGORY LABEL: active
--
COMPOUND: COc1cccc(C(=O)Nc2n[nH]c(SCc3ccc(Cl)cc3)n2)c1
CATEGORY LABEL: active
--
COMPOUND: CCOc1cc(C(c2c(C)[nH][nH]c2=O)c2c(C)[nH][nH]c2=O)ccc1O
CATEGORY LABEL: active

Hi, sorry to bother you, what did the test record for Cc1ccc(NC(=O)C2=C(c3ccccc3)S(=O)(=O)CCS2(=O)=O)cc1 ?
active

// param item: Cc1ccc(NC(=O)c2nc(S(=O)(=O)Cc3ccccc3)ncc2Cl)cc1 ; yields the recorded call
active

For CCc1ccc(C2C(C#N)=C(N)Oc3[nH]nc(CC(=O)OC)c32)cc1 (stereo not given) , which call appears in the assay record?
active

Recorded call for COc1ccc(N2C(=O)CC(N(CCc3ccccc3)C(=O)/C=C/C(=O)O)C2=O)cc1 (stereo not given) ?
inactive

Values compiled from ChEMBL document CHEMBL1201862.
